System: ACHN renal
Assay: NCI-60 one-dose screen, 48 h (100 = growth as untreated, 0 = no growth, -100 = all killed)
Details: 10 µM unless noted
Compounds without any hit were thinned out: in the full panel of roughly 83,000, 20% have a hit.
endpointName: growth (%)
Your answer should be a plain number; it is taken to be in %.

Query: # query: growth of entry S=c1cc(S)c2cc(Br)ccc2[nH]1
Response: 90.4

----------
System: UACC-62 melanoma
Test: NCI-60 one-dose screen, 48 h (100 = growth as untreated, 0 = no growth, -100 = all killed)
Conditions: 10 µM unless noted
About 83,000 compounds went through this panel and 20% of them were active in at least one assay; those are over-represented in the sample as a whole.
Consider the cut-off 80%. If the recorded growth is strictly smaller, the label is satisfied; if not, the label is not satisfied.

A selection of reference data follows.
compound	cat
Cc1cccc(NC(=O)Nc2ccc(-n3cnc4cc(-c5ccc(O)cc5)ccc43)cc2)c1	satisfied
CC(C)(C)c1cc(C=O)cc(C(C)(C)C)c1O	not satisfied
Oc1ccc(OCCOc2ccc(O)cc2)cc1	satisfied
CCOC(=O)c1cc(C#N)n2ccc3ccccc3c12	not satisfied
NS(=O)(=O)c1ccc(CCN2C(=O)C3C(C2=O)C2(Cl)C(Cl)=C(Cl)C3(Cl)C2(Cl)Cl)cc1 (configuration not stated)	satisfied

Query: Bench note: check whether O=c1ccc(-c2nc(N3CCOCC3)c3ccccc3n2)c[nH]1 shows growth below 80%
Response: satisfied

Query: Bench note: check whether CC(=O)CCC(=O)OCc1cc(=O)c(O)co1 shows growth below 80%
Response: not satisfied

Query: Bench note: check whether CN(C)CCC(=O)c1ccc([N+](=O)[O-])cc1 shows growth below 80%
Response: not satisfied

Query: Bench note: check whether COc1cc(C2=NN(C(C)=O)C(c3cc(OC)c(OC)c(OC)c3)C2)ccc1O (configuration not stated) shows growth below 80%
Response: satisfied

Query: Bench note: check whether COc1cc(/C(C)=C(\c2ccc(Cl)cc2)c2ccc(OCCN3CCCC3)cc2)ccc1F shows growth below 80%
Response: satisfied

Query: Bench note: check whether COC(=O)C(OC(C)=O)C(OC(C)=O)c1ccc(OC)c(OC)c1 (configuration not stated) shows growth below 80%
Response: not satisfied

----------
Tested on: ACHN renal
Test: NCI-60 one-dose screen, 48 h (100 = growth as untreated, 0 = no growth, -100 = all killed)
Conditions: 10 µM unless noted
Compounds without any hit were thinned out: in the full panel of roughly 83,000, 20% have a hit.
Quick reference: growth of the listed items.
Your answer should be a plain number; it is taken to be in %.

See these solved cases before continuing.
>>> print(df.to_string())
                             chemicalsmiles  endpointname  measured
0  COc1cccc(-c2ccc3c(c2)NC(=O)/C3=C\c2ccc[nH]2)c1        growth      40.2
1    CC/C(=C\c1ccc(OC)cc1)C(=O)c1ccc(OC)cc1        growth      96.9

We next turn to a different compound, shown below.
Query: # query: growth of entry COc1cc(-c2cc(-c3ccc(N(C)C)cc3)nc(N3CCOCC3)c2C#N)cc(OC)c1OC
Response: 46.1

----------
Tested on: SK-MEL-5 melanoma
Experiment: NCI-60 one-dose screen, 48 h (100 = growth as untreated, 0 = no growth, -100 = all killed)
Conditions: 10 µM unless noted
Compounds without any hit were thinned out: in the full panel of roughly 83,000, 20% have a hit.
endpointName: growth (%)
Your answer should be a plain number; it is taken to be in %.

See these solved cases before continuing.
In [3]: df
Out[3]:
                                   compound  measured
0  O=C(/C(=C\c1ccc([N+](=O)[O-])cc1)S(=O)Cc1ccc(Cl)cc1)c1ccc(Cl)cc1 (centres undefined)      90.7
1  O=C(CCN1CCCC1)Nc1ccc2c(NCCCc3ccccc3)c3ccccc3nc2c1      67.4
2  Cc1nn(-c2ccccc2)c(Cl)c1/C=C/C(=O)c1ccc(F)cc1      91.7
3            CCN(CC)c1ccc(C(=O)c2ccccc2)cc1      96.9

Query: Enter reported growth observed with SK-MEL-5 melanoma for Cc1cc(C(=O)/C=C/c2ccc[nH]2)ccc1-n1ccc(C(F)(F)F)n1
Response: 98.2

Query: Enter reported growth observed with SK-MEL-5 melanoma for Cn1ccnc1C(=O)/C=C/c1ccc(CC(=O)NC2CCCCC2)cc1
Response: 71.3

Query: Enter reported growth observed with SK-MEL-5 melanoma for CC1=C(C(=O)/C=C/c2c[nH]c3ccccc23)C(c2ccccc2)NC(=S)N1 (centres undefined)
Response: 98.3

Query: Enter reported growth observed with SK-MEL-5 melanoma for Cc1ccc(-n2cc(-c3ccccc3)c3c2N=NN2CCN=C32)cc1
Response: 99.1

Query: Enter reported growth observed with SK-MEL-5 melanoma for O=C1c2ccc3c4c(ccc(c24)C(=O)N1CCCNCc1ccccc1)C(=O)N(CCCNCc1ccccc1)C3=O
Response: -99.2
